# study system: Cytochrome P450 2B6 (Homo sapiens, UniProt P20813)
# Sequence (P20813 whole entry): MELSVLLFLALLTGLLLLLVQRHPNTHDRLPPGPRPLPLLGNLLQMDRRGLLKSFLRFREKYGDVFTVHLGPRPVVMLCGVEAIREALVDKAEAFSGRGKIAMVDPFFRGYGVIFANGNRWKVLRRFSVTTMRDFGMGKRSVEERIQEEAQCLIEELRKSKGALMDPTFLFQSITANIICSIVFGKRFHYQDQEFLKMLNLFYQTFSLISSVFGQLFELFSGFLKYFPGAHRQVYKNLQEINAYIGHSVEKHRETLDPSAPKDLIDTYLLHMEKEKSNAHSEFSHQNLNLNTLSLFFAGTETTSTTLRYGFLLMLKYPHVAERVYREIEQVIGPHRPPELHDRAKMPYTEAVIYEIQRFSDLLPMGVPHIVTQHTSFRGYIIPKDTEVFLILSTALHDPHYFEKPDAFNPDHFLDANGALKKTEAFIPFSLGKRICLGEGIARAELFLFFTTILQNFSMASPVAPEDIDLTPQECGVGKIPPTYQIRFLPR
# test protocol: Inhibition of CYP2B6 in human liver microsomes using 8-hydroxyefavirenz as probe after 10 mins
# Type: ADME, Microsome
pIC50: −log10 of the molar value.

{"mol smiles": "C[C@@H](c1ncncc1F)[C@](O)(Cn1cncn1)c1ccc(F)cc1F", "pIC50": 6.10}

---

# study system: Cytochrome P450 2B6 (Homo sapiens, UniProt P20813)
# test protocol: Inhibition of CYP2B6 in human liver microsomes assessed as efavirenz 8-hydroxylation after 10 mins by Dixon plot analysis
# Format: ADME, Microsome

{"mol smiles": "C[C@@H](c1ncncc1F)[C@](O)(Cn1cncn1)c1ccc(F)cc1F", "study system": "Cytochrome P450 2B6 (Homo sapiens, UniProt P20813)", "Ki": "400 nM"}

---

# test protocol: Inhibition of CYP3A using nifedipine as probe
# Type: ADME
pIC50: −log10 of the molar value.

{"mol smiles": "C[C@@H](c1ncncc1F)[C@](O)(Cn1cncn1)c1ccc(F)cc1F", "pIC50": 4.98}

---

# test protocol: Inhibition of CYP3A using felodipine as probe
# Format: ADME
pIC50: −log10 of the molar value.

{"compound": "C[C@@H](c1ncncc1F)[C@](O)(Cn1cncn1)c1ccc(F)cc1F [VORICONAZOLE]", "pIC50": 4.30}

---

# study system: CYP2A6 (Homo sapiens)
# Sequence (P11509 whole entry): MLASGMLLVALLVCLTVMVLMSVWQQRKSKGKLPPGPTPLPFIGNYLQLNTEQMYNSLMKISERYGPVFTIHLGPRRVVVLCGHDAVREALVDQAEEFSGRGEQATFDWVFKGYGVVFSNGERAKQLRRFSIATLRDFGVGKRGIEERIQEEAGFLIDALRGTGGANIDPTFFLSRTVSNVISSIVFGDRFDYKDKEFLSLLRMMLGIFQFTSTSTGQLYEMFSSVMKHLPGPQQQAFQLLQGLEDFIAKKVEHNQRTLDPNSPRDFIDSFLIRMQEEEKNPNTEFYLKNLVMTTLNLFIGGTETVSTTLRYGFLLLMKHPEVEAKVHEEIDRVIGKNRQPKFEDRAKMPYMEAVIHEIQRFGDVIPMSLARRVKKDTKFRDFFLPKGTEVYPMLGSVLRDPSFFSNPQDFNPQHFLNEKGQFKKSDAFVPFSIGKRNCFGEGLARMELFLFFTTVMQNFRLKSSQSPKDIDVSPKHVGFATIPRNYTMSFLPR
# test protocol: Inhibition of CYP2A6 in human liver microsomes assessed as coumarin 7-hydroxylation at 100 uM after 15 mins
# Format: ADME, Microsome
# condition description: probe coumarin (7-hydroxylation)

{"mol smiles": "C[C@@H](c1ncncc1F)[C@](O)(Cn1cncn1)c1ccc(F)cc1F", "inhibition at 0.25 h, 100 µM": "< 25%"}

---

# study system: UniProtKB P20813
# Sequence (P20813 whole entry): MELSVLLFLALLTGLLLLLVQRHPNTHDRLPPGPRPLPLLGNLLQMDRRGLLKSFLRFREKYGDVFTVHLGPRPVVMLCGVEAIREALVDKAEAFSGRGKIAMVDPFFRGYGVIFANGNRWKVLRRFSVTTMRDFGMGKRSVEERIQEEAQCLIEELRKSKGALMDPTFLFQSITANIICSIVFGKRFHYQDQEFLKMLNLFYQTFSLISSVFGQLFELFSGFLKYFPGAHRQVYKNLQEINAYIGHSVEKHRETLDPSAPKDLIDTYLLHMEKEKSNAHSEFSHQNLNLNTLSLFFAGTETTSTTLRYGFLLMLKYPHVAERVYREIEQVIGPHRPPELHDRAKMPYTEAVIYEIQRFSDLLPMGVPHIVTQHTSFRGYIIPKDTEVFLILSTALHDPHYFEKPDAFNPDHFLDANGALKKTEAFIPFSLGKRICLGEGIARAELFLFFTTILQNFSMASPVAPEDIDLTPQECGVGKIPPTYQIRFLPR
# test protocol: Inhibition of human CYP2B6 expressed in baculovirus assessed as voriconazole N-oxide formation
# Format: ADME
assay endpoint: IC50 (µM)

{"compound": "C[C@@H](c1ncncc1F)[C@](O)(Cn1cncn1)c1ccc(F)cc1F [VORICONAZOLE]", "study system": "UniProtKB P20813", "assay endpoint": "IC50", "observed result": 12.2}
